protocolText: chemical genetic growth profiling, strain panel (AID 1159580);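 also: tested at 20 µM; growth read once vehicle control cultures reached saturation at 30 °C; 1 = growth at the plate median or of vehicle wells; lower values mean less growth of the strain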
conditionLabel: S. cerevisiae deletion strains, growth OD, locus YER111C, strain swi4, hits give low values
The whole screen tested about 5,500 compounds, of which about 2,000 (36%) were called active. Inconclusive results (about 18%) are left out. Some of the results follow.

{"compound": "O=C(/C=C/C(=O)Oc1ccccc1C(=O)O)Oc1ccccc1C(=O)O", "normalized growth": 0.975}
{"compound": "CCCCC(=O)O[C@H]1CCC2C3CCc4cc(O)ccc4C3CC[C@@]21C (stereo partly specified)", "normalized growth": 1.01}
{"compound": "C[C@]12CCC3c4ccc(O)cc4CCC3C1CC[C@@H]2OC(=O)CCC1CCCC1 (stereo partly specified)", "normalized growth": 1.01}
{"compound": "Cc1ncc([N+](=O)[O-])n1CCO", "normalized growth": 0.981}
{"compound": "CC(=O)Oc1ccc2c(c1)CCC1C2CCC2(C)C1CC(OC(C)=O)C2OC(C)=O (stereo unspecified)", "normalized growth": 0.994}
{"compound": "CC(=O)Oc1ccc2c(c1)CCC1C2CC[C@@]2(C)C1CC[C@@H]2OC(C)=O (stereo partly specified)", "normalized growth": 0.986}
{"compound": "CC(=O)O[C@H]1CC2CCC3C(CC[C@@]4(C)C3C[C@H]([N+]3(C)CCCCC3)[C@@H]4OC(C)=O)[C@@]2(C)C[C@@H]1[N+]1(C)CCCCC1 (stereo partly specified)", "normalized growth": 1.01}
{"compound": "COc1cc2ccc(=O)oc2c(OC)c1OC", "normalized growth": 0.979}
{"compound": "CC(C)(O)CC[C@@H](O)[C@](C)(O)C1CC[C@@]2(O)C3=CC(=O)C4C[C@@H](O)[C@@H](O)C[C@]4(C)C3CC[C@]12C (stereo partly specified)", "normalized growth": 1.01}
{"compound": "CCC(=O)O[C@H]1CCC2C3CCc4cc(O)ccc4C3CC[C@@]21C (stereo partly specified)", "normalized growth": 0.974}
{"compound": "CC(C)=CCC/C(C)=C/COc1ccc2ccc(=O)oc2c1", "normalized growth": 1}

* * *

Catalogue of normalized growth values
protocolText: chemical genetic growth profiling, strain panel (AID 1159580);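 also: tested at 20 µM; growth read once vehicle control cultures reached saturation at 30 °C; 1 = growth at the plate median or of vehicle wells; lower values mean less growth of the strain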
conditionLabel: S. cerevisiae deletion strains, growth OD, locus YNL067W, strain RPL9B, hits give low values
The whole screen tested about 5,500 compounds, of which about 2,000 (36%) were called active. Another 18% or so got no clear call; they are omitted. The list shows a part of the results.
propertyLabel: normalized growth

{"molecule": "CCS(=O)(=O)CCn1c([N+](=O)[O-])cnc1C", "testResult": 1.02}
{"molecule": "CCCCCN=C(N)N/N=C\\c1c[nH]c2ccc(OC)cc12", "testResult": 0.998}
{"molecule": "CCOc1ccc(Cc2nccc3cc(OCC)c(OCC)cc23)cc1OCC", "testResult": 0.935}
{"molecule": "N#C/C(=C\\c1ccc(O)cc1)C(=O)O", "testResult": 0.974}
{"molecule": "CC1(C)C[C@@H]2C(=O)CC[C@H]3O[C@]3(C)CC[C@H]21", "testResult": 1.01}
{"molecule": "CCOC(=O)C1=C(C)NC(C)=C(C(=O)OC)C1c1cccc([N+](=O)[O-])c1 (centres undefined)", "testResult": 0.996}
{"molecule": "COc1ccc(Cc2nccc3cc(OC)c(OC)cc23)cc1OC", "testResult": 1.01}
{"molecule": "CNC(=O)CSP(=S)(OC)OC", "testResult": 1.01}
{"molecule": "CN(C)c1nc(N(C)C)nc(N(C)C)n1", "testResult": 1}
{"molecule": "O=c1[nH]c2ccccc2n1C1CCN(CCCC(c2ccc(F)cc2)c2ccc(F)cc2)CC1", "testResult": 0.987}
{"molecule": "Cc1cccc(N(C)C(=S)Oc2ccc3ccccc3c2)c1", "testResult": 0.989}
{"molecule": "COP(=S)(OC)SCn1nnc2ccccc2c1=O", "testResult": 0.941}
{"molecule": "Fc1ccc(C(c2ccc(F)cc2)N2CCN(C/C=C/c3ccccc3)CC2)cc1", "testResult": 0.964}
{"molecule": "O=C(CCCN1CC=C(n2c(=O)[nH]c3ccccc32)CC1)c1ccc(F)cc1", "testResult": 0.999}
